biological target: T1, Sortilin-6His (Homo sapiens (Human), UniProt Q99523 78-755); assay: TR-FRET (HTRF) ternary complex streptavidin-d2 / biotin-peptide / sortilin-6His; AUC score: + <5000, ++ >5000
T1 construct: In MST it was labelled non-covalently with RED-tris-NTA; also called soluble ectodomain of sortilin-6his; fluorescent sortilin-6his
T1 sequence (Q99523 78-755 V650M limits assumed): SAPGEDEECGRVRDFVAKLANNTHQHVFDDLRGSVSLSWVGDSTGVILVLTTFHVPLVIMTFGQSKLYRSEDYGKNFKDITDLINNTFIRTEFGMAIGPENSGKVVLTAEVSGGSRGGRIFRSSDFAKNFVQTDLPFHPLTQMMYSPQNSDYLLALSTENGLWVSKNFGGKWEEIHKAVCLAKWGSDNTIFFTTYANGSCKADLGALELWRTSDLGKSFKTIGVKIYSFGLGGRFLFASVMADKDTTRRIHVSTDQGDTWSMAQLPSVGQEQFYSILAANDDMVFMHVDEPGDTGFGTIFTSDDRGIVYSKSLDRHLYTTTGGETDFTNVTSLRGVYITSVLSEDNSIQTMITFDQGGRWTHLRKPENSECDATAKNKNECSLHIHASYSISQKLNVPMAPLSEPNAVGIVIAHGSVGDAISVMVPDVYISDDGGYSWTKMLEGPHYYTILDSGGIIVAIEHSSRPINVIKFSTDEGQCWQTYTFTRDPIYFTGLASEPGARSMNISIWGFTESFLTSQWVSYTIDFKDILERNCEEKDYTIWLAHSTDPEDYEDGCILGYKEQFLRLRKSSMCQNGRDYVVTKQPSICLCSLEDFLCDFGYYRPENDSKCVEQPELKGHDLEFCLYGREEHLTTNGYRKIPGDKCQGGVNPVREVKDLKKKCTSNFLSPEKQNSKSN
*: point of attachment. Biotin = O=C1N[C@H]2[C@H](CS[C@H]2CCCCC(=O)*)N1
Property measured: AUC of TR-FRET (HTRF ratio vs compound concentration) for ternary complex formation

(Q) Look up AUC of TR-FRET (HTRF ratio vs compound concentration) for ternary complex formation for this binder: Biotin-GGSGGGGSGGGGSGGRQLL-OH (SMILES CC(C)C[C@H](NC(=O)[C@H](CC(C)C)NC(=O)[C@H](CCC(N)=O)NC(=O)[C@H](CCCNC(=N)N)NC(=O)CNC(=O)CNC(=O)[C@H](CO)NC(=O)CNC(=O)CNC(=O)CNC(=O)CNC(=O)[C@H](CO)NC(=O)CNC(=O)CNC(=O)CNC(=O)CNC(=O)[C@H](CO)NC(=O)CNC(=O)CNC(=O)CCCC[C@@H]1SC[C@@H]2NC(=O)N[C@@H]21)C(=O)O, also called degrader) [Biotin-GGSGGGGSGGGGSGGRQLL-OH]
(A) > 5000 auc
